assay_summary: Pyrene fluorescence assay (critical aggregation concentration)
Assay type: physicochemical
study_conditions: Table 1; ATBP or ATBP-SMM conjugate, pyrene assay
Counter-ions that a name gives are not always drawn.
CAC under 5 µM gets T, anything at or over 5 µM gets F.

1) O=C1C=CC(=O)N1O [SMM 1, N-hydroxymaleimide] : F
2) O=C1C=CC(=O)N1c1ccccc1 [SMM 7, N-Phenyl maleimide] : T
3) CC(C)(C)N1C(=O)C=CC1=O [SMM 8, N-^tbutyl maleimide] : T
4) Cl.NCCN1C(=O)C=CC1=O [SMM 2] : F
5) CCN1C(=O)C=CC1=O [SMM 6, N-ethyl maleimide] : T
6) CS(=O)(=O)OCCN1C(=O)C=CC1=O [SMM 3, N-2-Maleimidoethyl mesylate] : T

====

assay_summary: Static light scattering (Rg, Nagg, shape factor)
Assay type: physicochemical
study_conditions: nanoparticles, SLS partial Zimm plot
Counter-ions that a name gives are not always drawn.
quantity_name: Rg

1) CC(C)(C)N1C(=O)C=CC1=O [SMM 8, N-^tbutyl maleimide] : 44.5 nm
2) O=C1C=CC(=O)N1c1ccccc1 [SMM 7, N-Phenyl maleimide] : 44.4 nm
3) CN1C(=O)C=CC1=O [SMM 5, N-methyl maleimide] : 45.7 nm
4) CCN1C(=O)C=CC1=O [SMM 6, N-ethyl maleimide] : 62.5 nm
5) Cl.NCCN1C(=O)C=CC1=O [SMM 2] : 141.0 nm
6) O=C1C=CC(=O)N1O [SMM 1, N-hydroxymaleimide] : 77.0 nm
7) CS(=O)(=O)OCCN1C(=O)C=CC1=O [SMM 3, N-2-Maleimidoethyl mesylate] : 115.6 nm

====

The following molecules are listed with their measured Rh values.
assay_summary: Dynamic light scattering (hydrodynamic radius)
Assay type: physicochemical
study_conditions: ATBP or ATBP-SMM conjugate nanoparticles, DLS in PBS at 22° C.
Where a name gives a salt, the structure may show the parent alone.
quantity_name: Rh

1) O=C1C=CC(=O)N1c1ccccc1 [SMM 7, N-Phenyl maleimide] : 49.1 nm
2) O=C1C=CC(=O)N1O [SMM 1, N-hydroxymaleimide] : 87.3 nm
3) Cl.NCCN1C(=O)C=CC1=O : 123.5 nm
4) CCN1C(=O)C=CC1=O [SMM 6, N-ethyl maleimide] : 62.3 nm
5) CC(C)(C)N1C(=O)C=CC1=O [SMM 8, N-^tbutyl maleimide] : 46.2 nm
6) CN1C(=O)C=CC1=O [SMM 5, N-methyl maleimide] : 46.8 nm
7) CS(=O)(=O)OCCN1C(=O)C=CC1=O [SMM 3, N-2-Maleimidoethyl mesylate] : 109.1 nm

====

assay_summary: SMM conjugation ratio by Ellman's reagent assay
Format: physicochemical
Binary call on #SMM/ATBP (number of SMM conjugated per ATBP) with cut-off 7: strictly below means MET, and equality or higher means NOT MET.

1) CC(C)(C)N1C(=O)C=CC1=O [SMM 8, N-^tbutyl maleimide] : MET
2) O=C1C=CC(=O)N1O [SMM 1, N-hydroxymaleimide] : NOT MET

====

assay_summary: Temperature-programmed turbidimetry (transition temperature Tt)
Type: physicochemical
study_conditions: ATBP or ATBP-SMM conjugate in PBS, ATBP concentration 25 μM
Counter-ions that a name gives are not always drawn.
quantity_name: Tt, Concentration 25 μM

1) O=C1C=CC(=O)N1c1ccccc1 [SMM 7, N-Phenyl maleimide] : 48 C
2) CN1C(=O)C=CC1=O [SMM 5, N-methyl maleimide] : 45 C
3) Cl.NCCN1C(=O)C=CC1=O [SMM 2] : 49 C
4) CS(=O)(=O)OCCN1C(=O)C=CC1=O [SMM 3, N-2-Maleimidoethyl mesylate] : 45 C
5) CCN1C(=O)C=CC1=O [SMM 6, N-ethyl maleimide] : 47 C
6) CC(C)(C)N1C(=O)C=CC1=O [SMM 8, N-^tbutyl maleimide] : 44 C
7) O=C1C=CC(=O)N1O [SMM 1, N-hydroxymaleimide] : 49 C

src = patent US11135301B2
